protocol: gradient 5% acetonitrile 3 min, to 50% in 2 min, to 85% in 15 min, held 3 min, 100 µL/min
particulars: column: Zorbax Extend-C18 2.1 x 50 mm; eluents: water / acetonitrile, 0.1% formic acid
measure-name: RP-LC retention time (s)
Numbers only here, please. The scale is s.

These solved cases illustrate the format of a correct answer.
compound=O=C(NCc1csc(-c2cccs2)n1)C1CCN(S(=O)(=O)c2cccc(Cl)c2)CC1 measure_name="RP-LC retention time" measured_result=927
compound=CCOCCCNC(=O)C1CCN(c2cnn(Cc3ccccc3)c(=O)c2)CC1 measure_name="RP-LC retention time" measured_result=679
compound=O=C(Nc1nc(CCC(=O)N2CCn3c2nc2ccccc23)cs1)c1ccc(F)cc1 measure_name="RP-LC retention time" measured_result=721
compound="CC(C)COC(=O)c1ccc(NC(=O)C2C3CCC(C3)C2C(=O)O)cc1 (stereo not given)" measure_name="RP-LC retention time" measured_result=901

Kindly consider the entry below.
Assign RP-LC retention time to the following record: CC(=O)Nc1cccc(N2CC(C(=O)Nc3ccc(Br)c(C)c3)CC2=O)c1 (stereo not given)
703

###

protocol: gradient 5% acetonitrile 3 min, to 50% in 2 min, to 85% in 15 min, held 3 min, 100 µL/min
particulars: column: Zorbax Extend-C18 2.1 x 50 mm; eluents: water / acetonitrile, 0.1% formic acid
Listed compounds paired with reported RP-LC retention time
Numbers only here, please. The scale is s.

These solved cases illustrate the format of a correct answer.
compound="CCOC(=O)C1CCCN(CC(=O)Nc2nc(-c3ccccc3)cs2)C1 (centres undefined)" measured_result=690
compound=N#Cc1cccc(-c2cn3c(n2)N(C(=O)C2CCC2)CCC3)c1 measured_result=690
compound="CC(=O)Nc1cccc(N2CC(C(=O)NCc3cccc(Br)c3)CC2=O)c1 (centres undefined)" measured_result=703

Kindly consider the entry below.
Assign RP-LC retention time to the following record: CCc1onc(C)c1C1CCCN1C(=O)Cc1ccc(OC)c(OC)c1 (centres undefined)
718

###

protocol: gradient 5% acetonitrile 3 min, to 50% in 2 min, to 85% in 15 min, held 3 min, 100 µL/min
particulars: column: Zorbax Extend-C18 2.1 x 50 mm; eluents: water / acetonitrile, 0.1% formic acid
Listed compounds paired with reported RP-LC retention time
Numbers only here, please. The scale is s.

These solved cases illustrate the format of a correct answer.
compound=Cc1ccc2nc(C(=O)NC3CCN(Cc4ccccc4)CC3)cn2c1 measure_name="RP-LC retention time" measured_result=560
compound=COc1ccc(CN2CCN(c3cnn4c(C5CC5)nnc4c3)CC2)cc1 measure_name="RP-LC retention time" measured_result=544
compound=COc1ccc(-c2csc3ncn(-n4c(C)ccc4C)c(=O)c23)cc1OC measure_name="RP-LC retention time" measured_result=905
compound=COCc1cc(=O)n(CC(=O)Nc2cc(C)ccc2C)c(N)n1 measure_name="RP-LC retention time" measured_result=631
compound=O=C(Cc1c(Sc2cccc(F)c2)[nH]c2ccccc12)N1CCN(c2ncccn2)CC1 measure_name="RP-LC retention time" measured_result=975
compound=Cn1c(C(=O)N2CCN(c3ccccn3)CC2)c(N2CCCC2=O)c2cc(F)ccc21 measure_name="RP-LC retention time" measured_result=635

Assign RP-LC retention time to the following record: "CS(=O)(=O)N1CCC(OC2CCN(C(=O)NCc3ccccc3)CC2)CC1"
704

Assign RP-LC retention time to the following record: Cc1ccc(N2C(=O)CN(S(C)(=O)=O)CC2(C)C(=O)NCc2ccccc2)c(C)c1 (stereo unspecified)
838

Assign RP-LC retention time to the following record: "O=C(CSc1nnc(NC(=O)c2cccc([N+](=O)[O-])c2)s1)Nc1nccs1"
702

Assign RP-LC retention time to the following record: CN(C)c1cccc(C(=O)NC2CCN(c3cc(-c4ccc(Cl)cc4)[nH]n3)C2)c1 (stereo unspecified)
865

Assign RP-LC retention time to the following record: O=C(CCC1CCCN(S(=O)(=O)c2ccccc2F)C1)NC1CCS(=O)(=O)C1 (stereo unspecified)
748

###

Listed molecules paired with reported RP-LC retention time
protocol: gradient 5% acetonitrile 3 min, to 50% in 2 min, to 85% in 15 min, held 3 min, 100 µL/min
particulars: column: Zorbax Extend-C18 2.1 x 50 mm; eluents: water / acetonitrile, 0.1% formic acid
Numbers only here, please. The scale is s.

These solved cases illustrate the format of a correct answer.
molecule=Cc1cc(CN2CCC(CNC(=O)CSc3ccc(F)cc3)CC2)c(C)o1 unit_annotation=s measured_result=583
molecule=Cc1sc(NC(=O)c2ccco2)c(CN2CCN(c3ccc(F)cc3)CC2)c1C unit_annotation=s measured_result=691
molecule=CCCc1noc(-c2ccnc(-n3ncc(C(=O)NC4CC4)c3C)c2)n1 unit_annotation=s measured_result=839
molecule="CCOc1ccc(CNC(=O)C2CCCN(c3nn4c(=O)c5c(nc4s3)CCCC5)C2)cc1 (configuration not stated)" unit_annotation=s measured_result=784
molecule=COc1cc(OC)c(NC(=O)N2CCC3(CC2)N=C(c2cccc(F)c2)C(=O)N3)cc1Cl unit_annotation=s measured_result=886

Assign RP-LC retention time to the following record: COc1cc2c(cc1OC)CN(C(=O)C1CC(=O)N(c3n[nH]c4cccc(F)c34)C1)CC2 (configuration not stated)
689

Assign RP-LC retention time to the following record: "CCOc1ccc2cccc(NC(=O)c3cnccn3)c2n1"
1080

Assign RP-LC retention time to the following record: "COc1ccc(-c2noc(Cn3nc(-c4ccc(Cl)cc4)ccc3=O)n2)cc1"
1080

Assign RP-LC retention time to the following record: "COc1ccc(NC(=O)c2cnc3c(c2)c(=O)n(C)c(=O)n3-c2ccc(OC)cc2)cc1"
859

Assign RP-LC retention time to the following record: "O=C(Nc1cccc(C(F)(F)F)c1)N1C[C@H]2C[C@H](C1)[C@H]1CCCC(=O)N1C2"
731

###

protocol: gradient 5% acetonitrile 3 min, to 50% in 2 min, to 85% in 15 min, held 3 min, 100 µL/min
particulars: column: Zorbax Extend-C18 2.1 x 50 mm; eluents: water / acetonitrile, 0.1% formic acid
Threshold check on RP-LC retention time: strictly below 800 s is class 1; on or above 800 s is class 0.

compound=CCc1ccc(NC(=O)c2cc3sc(Cl)cc3n2C)cc1 label="class 0"

Here's an entry: "CCn1cc2c(n1)c(=O)n(Cc1ccccc1)c(=O)n2CC(=O)NCc1ccccc1Br" . Is its RP-LC retention time below 800 s?
class 0

Here's an entry: "O=C(CCc1ccccc1)Nc1ccc2c(c1)N(C(=O)c1ccco1)CCC2" . Is its RP-LC retention time below 800 s?
class 0

Here's an entry: "Cc1nc(NC(=O)c2ccc(OCc3nc(C4CC4)cs3)cc2)sc1C" . Is its RP-LC retention time below 800 s?
class 0

Here's an entry: CCC(C)NC(=O)N1CC(Oc2ccc(-c3nc(C)no3)cc2)C1 (configuration not stated) . Is its RP-LC retention time below 800 s?
class 0

Here's an entry: "CCOC(=O)Cc1csc(NC(=O)C2CCN(C(C)=O)CC2)n1" . Is its RP-LC retention time below 800 s?
class 1

Here's an entry: COc1ccc(OC)c(S(=O)(=O)N2CCCC(C(=O)NC3CC3)C2)c1 (configuration not stated) . Is its RP-LC retention time below 800 s?
class 1

###

protocol: gradient 5% acetonitrile 3 min, to 50% in 2 min, to 85% in 15 min, held 3 min, 100 µL/min
particulars: column: Zorbax Extend-C18 2.1 x 50 mm; eluents: water / acetonitrile, 0.1% formic acid
Threshold check on RP-LC retention time: strictly below 800 s is Met; on or above 800 s is Not met.

compound=CCn1c(SC)nnc1-c1nn(C)c2c1CN(C(C)=O)CC2 label=Met
compound=CCOC(=O)c1cc(C)nc2c1c(=O)n(Cc1ccc(F)cc1)c(=O)n2C label="Not met"
compound=Cc1cc(C)cc(NC(=O)CN2C(=O)CSc3ccc(C(=O)N4CCCC4)cc32)c1 label=Met
compound="COc1ccccc1-c1noc(C2CCCN2C(=O)Nc2ccc(Cl)cc2)n1 (stereo unspecified)" label="Not met"

Here's an entry: O=C(Cn1c(C2CCCO2)nc2ccccc21)NCc1cccs1 (stereo unspecified) . Is its RP-LC retention time below 800 s?
Met

Here's an entry: "O=C(Cn1cnc2c(sc3nc(-c4ccccc4)ccc32)c1=O)NCc1ccco1" . Is its RP-LC retention time below 800 s?
Not met

Here's an entry: CCn1cnc(S(=O)(=O)N2CCCC(C(=O)Nc3cccc(C)c3C)C2)c1 (stereo unspecified) . Is its RP-LC retention time below 800 s?
Met

Here's an entry: "Cc1ccc(-c2nnc(Cc3nc(-c4cccc(C)c4)no3)o2)cc1" . Is its RP-LC retention time below 800 s?
Not met

Here's an entry: "CC1(C)Cc2cccc(OCC(=O)Nc3cccc(-c4ccn[nH]4)c3)c2O1" . Is its RP-LC retention time below 800 s?
Met

Here's an entry: O=C(CC1CCCN(c2cnn(CC3CC3)c(=O)c2)C1)N1CCSCC1 (stereo unspecified) . Is its RP-LC retention time below 800 s?
Met

Here's an entry: "O=C(NCc1ccco1)c1cccc(Nc2c(-c3ccccc3)nc3cnccn23)c1" . Is its RP-LC retention time below 800 s?
Met
